- Tested on: Bloodstream form of Trypanosoma brucei, strain Lister 427
- assay: Trypanosoma brucei growth inhibition assay (CellTiter-Glo, 24 h)
- Format: cell-based
- test.context: Trypanosoma brucei; T. Brucei Growth Inibition Assay, class symbols; read-out: T. Brucei GI EC50
pEC50: −log10 of the molar value.
The entries below come with measured pEC50 values attached.

Cc1csc(CC(=O)N2CCN(Cc3ccccc3)CC2c2ncc(-c3ccc4ccccc4c3)[nH]2)n1 (stereo not drawn) = 5.30 to 6.00
COc1ccc2[nH]c(C)c(CC(=O)N3CCN(C)CC3c3ncc(-c4ccc5ccccc5c4)[nH]3)c2c1 (stereo not drawn) = > 7.00
COc1ccc2[nH]c(C)c(CC(=O)N3CCN(C(=O)OC(C)(C)C)CC3c3ncc(-c4cc5ccccc5nc4OC)[nH]3)c2c1 (stereo not drawn) = 6.30 to 7.00
COc1ccc2nc(C)n(CC(=O)N3CCN(C[C@H]4CCOC4)CC3c3ncc(-c4ccc(-c5ccccc5)nc4OC)[nH]3)c2c1 (stereo partly drawn) = 6.30 to 7.00
COc1ccc2nc(C(F)(F)F)n(CC(=O)N3CCS(=O)(=O)C[C@H]3c3ncc(-c4cc5ccccc5nc4OC)[nH]3)c2c1 = 6.30 to 7.00
COc1nc2ccccc2cc1-c1cnc([C@@H]2CN(C3CCN(C(C)=O)CC3)CCN2C(=O)Cn2c(C(F)(F)F)nc3ccccc32)[nH]1 = > 7.00
COc1ccc2nc(C(F)(F)F)n(CC(=O)N3CCN(Cc4ccn(C)n4)CC[C@H]3c3ncc(-c4cc5ccccc5nc4OC)[nH]3)c2c1 = > 7.00
COc1nc2ccccc2cc1-c1cnc(C2CN(CC3CC3)CCN2C(=O)Cc2c(C)[nH]c3ccc(F)cc23)[nH]1 (stereo not drawn) = 6.30 to 7.00
COc1ccc2nc(C)n(CC(=O)N3CCN(C4CCOCC4)C[C@H]3c3ncc(-c4cc5ccccc5nc4OC)[nH]3)c2c1 = 6.30 to 7.00
COc1ccc2c(c1)[C@H](CC(=O)N1CCN(C)CC1c1ncc(-c3ccc4ccccc4c3)[nH]1)C(=O)N2 (stereo partly drawn) = 5.30 to 6.00

// Input: COc1ccc2nc(C)n(CC(=O)N3CCN(Cc4ccn(C)n4)CCC3c3ncc(-c4cc5ccccc5nc4OC)[nH]3)c2c1 (stereo not drawn) . Output its pEC50 only.
> 7.00

// Input: "COc1nc2ccccc2cc1-c1cnc([C@@H]2CN(CC3COC3)CCN2C(=O)Cn2c(C(F)(F)F)nc3ccccc32)[nH]1" . Output its pEC50 only.
> 7.00

// Input: COc1nc2ccccc2cc1-c1cnc(C2CN(CC3CCOC3)CCN2C(=O)Cn2c(C)nc3ccccc32)[nH]1 (stereo not drawn) . Output its pEC50 only.
6.30 to 7.00

// Input: CCCCCCN1CCN(C(=O)Cc2c[nH]c3cccnc23)C(c2ncc(-c3ccc4ccccc4c3)[nH]2)C1 (stereo not drawn) . Output its pEC50 only.
5.30 to 6.00

// Input: COc1ccc2nc(C(F)(F)F)n(CC(=O)N3CC[C@H](NC4CCOC4)C[C@H]3c3ncc(-c4cc5ccccc5nc4OC)[nH]3)c2c1 (stereo partly drawn) . Output its pEC50 only.
> 7.00
